- Test system: G. duodenalis trophozoites
- Assay method text: In vitro susceptibility, direct cell count (DCC)
- Assay type: cell-based, Giardia duodenalis (WB strain)
- Experimental conditions: Giardia duodenalis, 24 h exposure
Reported metric: IC50 (µM)
Quick reminder: number only, in µM, skip the unit.

## Task // returns reported IC50 for input C=CCS[S+]([O-])CC=C (stereo not shown) [ALC, diallyl thiosulfinate]
## Result 369

----------
- Test system: G. duodenalis trophozoites
- Assay method text: In vitro susceptibility, trypan blue exclusion (TBE)
- Format: cell-based, Giardia duodenalis (WB strain)
- Experimental conditions: Giardia duodenalis, 24 h exposure
Reported metric: pIC50
// field semantics: pIC50 = negative decimal log of concentration (mol/L)

## Task Given the entry C=CCS[S+]([O-])CC=C (stereo not shown) [ALC, diallyl thiosulfinate] , what pIC50 was observed with G. duodenalis trophozoites?
## Result 3.39

----------
- Tested on: G. duodenalis trophozoites
- Assay method text: In vitro susceptibility, FDA-PI staining
- Format: cell-based, Giardia duodenalis (WB strain)
- Experimental conditions: Giardia duodenalis, 24 h exposure
Reported metric: IC50 (µM)
Output spec: scalar in µM, unitless text.

## Task Could you tell me which IC50 is on file for C=CCS[S+]([O-])CC=C (stereo not shown) [ALC, diallyl thiosulfinate] ?
## Result 536
